target-entity: human DR5 (human)
assay-text: SPR (BIAcore X100), human DR5 on CM5 chip, IgG injected, 1:1 Langmuir model
quantity-measured: kon (M⁻¹ s⁻¹)
I only need the number, in M⁻¹ s⁻¹, no unit after it.

DA12 (antibody, V domains shown) VH: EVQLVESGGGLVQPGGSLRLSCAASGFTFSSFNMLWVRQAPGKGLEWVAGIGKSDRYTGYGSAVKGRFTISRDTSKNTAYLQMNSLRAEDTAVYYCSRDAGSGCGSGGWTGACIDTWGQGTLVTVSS VL: DIQMTQSPSSLSASVGDRVTITCSGGDSYAGSYYYGWYQQKPGKAPKTLIYNNNNLMPGVPSRFSGSRSGTDFTLTISSLQPEDFATYYCGSRDSSYVGIFGQGTKVEIK    2.37e+06

Which kon is listed for DA10 (antibody, V domains shown) VH: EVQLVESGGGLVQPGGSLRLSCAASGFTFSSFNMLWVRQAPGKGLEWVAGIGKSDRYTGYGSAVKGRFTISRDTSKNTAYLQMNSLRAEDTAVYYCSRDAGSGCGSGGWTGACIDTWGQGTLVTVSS VL: DIQMTQSPSSLSASVGDRVTITCSGGDSYAGSYYYGWYQQKPGKAPKTLIYNNNNRPSGVPSRFSGSRSGTDFTLTISSLQPEDFATYYCGSRDSSYVGIFGQGTKVEIK ?
2.3e+06
